- TARGET ENTITY: T1, 57NAAT1like (second extracellular loop of Spodoptera frugiperda sodium-dependent nutrient amino acid … (Spodoptera frugiperda))
- T1 construct: 57 aa antigen; also called NAAT antigen
- T1 chain: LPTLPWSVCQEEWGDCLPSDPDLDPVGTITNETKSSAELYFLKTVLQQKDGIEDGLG
- ASSAY COMMENT: ELISA of periplasmic extracts on passively coated non-biotinylated 57NAAT1like
REPORTED PROPERTY: binding result

BINDER	ASSAY RESULT
NAAT monospecific nanobody #29 (VHH, Llama VHH; also called NAAT29) VHH: QVQLQESGGGVVQTGGSLTLSCKASRRTSGFAMAWFRQAPGMEREFVAGIGRTGDNIHYLDSVKGRFTISRDNTKNTLSLQMNNLKPEDTAVYYCLRTMGGTWSEKGQGTQVTVSS	binds
NAAT monospecific nanobody #1 (VHH, Llama VHH; also called NAAT1) VHH: QVQLQESGGGLVQAGGSLRLSCAASGRTFSRYAMGWFRQALGKEREFVAGINWSGSMTYYADSVKGRFTISRDNAKNMLYLQMNSLKSEDTAVYYCAGVTVVGGAPAFDYWGQGTQVTVSS	binds
